- experimental_system: full-length NS3/NS4A-2 (HCV NS3 protease) (Hepatitis C virus genotype 1a, UniProt P27958)
- Construct: Recombinant E. coli or Baculovirus full-length NS3 was diluted to 3.33 μM with assay buffer; made in house; host or cells: E. coli or baculovirus (BV) expression system
- Sequence (P27958 1027-1657): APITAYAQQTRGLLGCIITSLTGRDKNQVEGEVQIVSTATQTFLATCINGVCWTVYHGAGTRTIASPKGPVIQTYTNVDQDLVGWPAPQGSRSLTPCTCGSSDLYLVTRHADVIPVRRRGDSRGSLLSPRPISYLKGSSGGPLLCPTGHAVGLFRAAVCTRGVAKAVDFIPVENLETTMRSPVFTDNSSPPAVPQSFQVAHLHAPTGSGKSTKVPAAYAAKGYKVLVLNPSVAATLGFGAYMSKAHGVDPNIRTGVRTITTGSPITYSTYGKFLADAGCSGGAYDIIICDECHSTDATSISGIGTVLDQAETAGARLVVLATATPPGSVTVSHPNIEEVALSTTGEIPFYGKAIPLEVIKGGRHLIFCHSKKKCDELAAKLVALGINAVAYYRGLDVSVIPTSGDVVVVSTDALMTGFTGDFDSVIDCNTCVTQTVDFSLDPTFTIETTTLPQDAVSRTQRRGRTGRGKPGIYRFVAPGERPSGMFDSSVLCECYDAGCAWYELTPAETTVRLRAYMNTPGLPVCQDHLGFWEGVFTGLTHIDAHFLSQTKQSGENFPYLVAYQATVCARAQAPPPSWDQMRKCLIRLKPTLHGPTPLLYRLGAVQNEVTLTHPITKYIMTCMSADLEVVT
- measurement_description: NS3-NS4 protease assay / NS3 inhibition assay (RETS1 substrate, fluorescence kinetic read)
- Type: biochemical
- condition_details: recombinant E. coli or Baculovirus full-length NS3 with NS4A-2; read-out: NS3-NS4 IC50
test_readout: IC50

I am curious: what IC50 value has been reported for `CC(C)(C)OC(=O)N[C@H]1CCCCCC[C@@H]2C[C@@]2(C(=O)NS(=O)(=O)C2CC2)NC(=O)[C@@H]2C[C@@H](OC(=O)N3Cc4cccc(F)c4C3)CN2C1=O` ?
< 100 nM

I am curious: what IC50 value has been reported for O=C(N[C@H]1CCCCC/C=C\[C@@H]2C[C@@]2(C(=O)NS(=O)(=O)N2CC(F)(F)C2)NC(=O)C2C[C@@H](OC(=O)N3Cc4ccccc4C3)CN2C1=O)OC1CCCC1 (stereo partly shown) ?
< 100 nM

I am curious: what IC50 value has been reported for `CC(C)(C)OC(=O)N[C@H]1CCCCC/C=C\[C@@H]2C[C@@]2(C(=O)NS(=O)(=O)C(C)(C)C)NC(=O)[C@@H]2C[C@@H](OC(=O)N3Cc4ccccc4C3)CN2C1=O` ?
< 100 nM

I am curious: what IC50 value has been reported for `CC(C)(C)OC(=O)N[C@H]1CCCCC/C=C\[C@@H]2C[C@@]2(C(=O)NS(=O)(=O)c2cnccc2Cl)NC(=O)[C@@H]2C[C@@H](OC(=O)N3Cc4ccccc4C3)CN2C1=O` ?
< 100 nM

I am curious: what IC50 value has been reported for `O=C1N[C@]2(C(=O)O)C[C@H]2/C=C\CCCCC[C@H](Nc2c(N3CCC3)c(=O)c2=O)C(=O)N2C[C@H](OC(=O)N3Cc4cccc(F)c4C3)C[C@@H]12` ?
< 100 nM

I am curious: what IC50 value has been reported for `CC(C)(C)OC(=O)N[C@H]1CCCCC/C=C\[C@@H]2C[C@@]2(C(=O)NCCO)NC(=O)[C@@H]2C[C@@H](OC(=O)N3Cc4cccc(F)c4C3)CN2C1=O` ?
< 1000 nM

I am curious: what IC50 value has been reported for O=C1N[C@]2(C(=O)NS(=O)(=O)C3CC3)C[C@H]2/C=C\CCCCC[C@H](NCC2CCCO2)C(=O)N2C[C@H](OC(=O)N3Cc4cccc(F)c4C3)C[C@@H]12 (stereo partly shown) ?
< 100 nM

I am curious: what IC50 value has been reported for `CC(C)(C)OC(=O)N[C@H]1CCCCC/C=C\[C@@H]2C[C@@]2(C(=O)NS(=O)(=O)c2cccc3c(Cl)cccc23)NC(=O)[C@@H]2CCCN2C1=O` ?
< 10000 nM

I am curious: what IC50 value has been reported for `C[C@H](NC(=O)[C@@]12C[C@H]1/C=C\CCCCC[C@H](NC(=O)OC(C)(C)C)C(=O)N1CCC[C@H]1C(=O)N2)c1ccncc1` ?
> 10000 nM

I am curious: what IC50 value has been reported for `O=C1N[C@]2(C(=O)NS(=O)(=O)C3CC3)C[C@H]2/C=C\CCCCC[C@H](NCc2ccccc2)C(=O)N2C[C@H](OC(=O)N3Cc4cccc(F)c4C3)C[C@@H]12` ?
< 100 nM

----------
- experimental_system: full-length NS3/NS4A-2 (HCV NS3 protease) (Hepatitis C virus genotype 1a)
- Construct: Recombinant E. coli or Baculovirus full-length NS3 was diluted to 3.33 μM with assay buffer; made in house; host or cells: E. coli or baculovirus (BV) expression system
- measurement_description: NS3-NS4 protease assay / NS3 inhibition assay (RETS1 substrate, fluorescence kinetic read)
- Format: biochemical
- condition_details: Table 24; read-out: NS3-NS4 IC50
Record form. Attribute: IC50. Fill in for each entry.

I am curious: what IC50 value has been reported for `CC(C)(C)OC(=O)N[C@H]1CCCCC/C=C\[C@@H]2C[C@@]2(C(=O)NCC2CC2)NC(=O)[C@@H]2C[C@@H](OC(=O)N3Cc4ccccc4C3)CN2C1=O` ?
> 10 µM

I am curious: what IC50 value has been reported for `C[C@H](NC(=O)[C@@]12C[C@H]1/C=C\CCCCC[C@H](NC(=O)OC(C)(C)C)C(=O)N1C[C@H](OC(=O)N3Cc4ccccc4C3)C[C@H]1C(=O)N2)c1ccccc1` ?
> 10 µM

----------
Record form. Attribute: IC50. Fill in for each entry.
- experimental_system: full-length NS3/NS4A-2 (HCV NS3 protease) (Hepatitis C virus genotype 1a, UniProt P27958)
- Construct: Recombinant E. coli or Baculovirus full-length NS3 was diluted to 3.33 μM with assay buffer; made in house; host or cells: E. coli or baculovirus (BV) expression system
- measurement_description: NS3-NS4 protease assay / NS3 inhibition assay (RETS1 substrate, fluorescence kinetic read)
- Format: biochemical
- condition_details: recombinant E. coli or Baculovirus full-length NS3 with NS4A-2; read-out: NS3-NS4 IC50

I am curious: what IC50 value has been reported for CC(C)(C)OC(=O)N[C@H]1CCCCC/C=C\[C@@H]2C[C@@]2(C(=O)NS(=O)(=O)c2ccc(C#N)cc2)NC(=O)[C@@H]2CCCN2C1=O [Compound 2134] ?
< 1000 nM

I am curious: what IC50 value has been reported for CC(C)(C)OC(=O)N[C@H]1CCCCC/C=C\[C@@H]2C[C@@]2(C(=O)NS(=O)(=O)NCCc2ccc(Cl)cc2)NC(=O)[C@@H]2CCCN2C1=O [Compound 403] ?
< 10000 nM

I am curious: what IC50 value has been reported for O=C(N[C@H]1CCCCC/C=C\[C@@H]2C[C@@]2(C(=O)NS(=O)(=O)N2CCCC2)NC(=O)[C@@H]2C[C@@H](OC(=O)N3Cc4cccc(F)c4C3)CN2C1=O)OC1CCCC1 [Compound 216] ?
< 100 nM

I am curious: what IC50 value has been reported for O=C(Cc1ccc(C(F)(F)F)cc1)N[C@H]1CCCCC/C=C\[C@@H]2C[C@@]2(C(=O)NS(=O)(=O)C2CC2)NC(=O)C2CCCN2C1=O (some centres unmarked) [Compound 2142] ?
< 10000 nM

I am curious: what IC50 value has been reported for C[C@@H](NC(=O)O[C@@H]1C[C@H]2C(=O)N[C@]3(C(=O)O)C[C@H]3/C=C\CCCCC[C@H](NC(=O)OC(C)(C)C)C(=O)N2C1)c1ccc(F)cn1 [Compound 148] ?
> 10000 nM

I am curious: what IC50 value has been reported for C[C@H](NC(=O)O[C@@H]1C[C@H]2C(=O)N[C@]3(C(=O)NS(=O)(=O)C4CC4)C[C@H]3/C=C\CCCCC[C@H](NC(=O)OC(C)(C)C)C(=O)N2C1)c1ccc(F)cn1 [Compound 149] ?
< 100 nM

I am curious: what IC50 value has been reported for C[C@@H](NC(=O)[C@@]12C[C@H]1/C=C\CCCCC[C@H](NC(=O)OC(C)(C)C)C(=O)N1C[C@H](OC(=O)N3Cc4cccc(F)c4C3)C[C@H]1C(=O)N2)c1ccc(F)cn1 [Compound 629] ?
< 1000 nM

I am curious: what IC50 value has been reported for CC(C)C[C@@H]1C[C@H]2C(=O)N[C@]3(C(=O)NS(=O)(=O)C4CC4)C[C@H]3/C=C\CCCCC[C@H](NC(=O)OC(C)(C)C)C(=O)N2C1 [Compound 2147] ?
> 10000 nM

I am curious: what IC50 value has been reported for COc1ccc(CC(=O)N[C@H]2CCCCC/C=C\[C@@H]3C[C@@]3(C(=O)NS(=O)(=O)C3CC3)NC(=O)[C@@H]3CCCN3C2=O)cc1 [Compound 2138] ?
> 10000 nM

I am curious: what IC50 value has been reported for CC(C)(C)OC(=O)N[C@H]1CCCC/C=C\[C@@H]2C[C@@]2(C(=O)NS(=O)(=O)C2CC2)NC(=O)[C@@H]2C[C@@H](OC(=O)N3Cc4cccc(F)c4C3)CN2C1=O [Compound 267] ?
< 100 nM

I am curious: what IC50 value has been reported for CC(C)(C)OC(=O)N[C@H]1CCCCC/C=C\[C@@H]2C[C@@]2(C(=O)NS(=O)(=O)NC2CC2)NC(=O)[C@@H]2CCCN2C1=O [Compound 2201] ?
< 1000 nM

----------
- experimental_system: full-length NS3/NS4A-2 (HCV NS3 protease) (Hepatitis C virus genotype 1a, UniProt P27958)
- Construct: Recombinant E. coli or Baculovirus full-length NS3 was diluted to 3.33 μM with assay buffer; made in house; host or cells: E. coli or baculovirus (BV) expression system
- measurement_description: NS3-NS4 protease assay / NS3 inhibition assay (RETS1 substrate, fluorescence kinetic read)
- Type: biochemical
- condition_details: recombinant E. coli or Baculovirus full-length NS3 with NS4A-2; read-out: NS3-NS4 IC50
test_readout: IC50

I am curious: what IC50 value has been reported for `O=C(N[C@H]1CCCCC/C=C\[C@@H]2C[C@@]2(C(=O)NS(=O)(=O)c2cc(Cl)sc2Cl)NC(=O)[C@@H]2C[C@@H](OC(=O)N3Cc4cccc(Cl)c4C3)CN2C1=O)OC1CCCC1` ?
< 100 nM

I am curious: what IC50 value has been reported for N#CNC(=O)[C@@]12C[C@H]1/C=C\CCCCC[C@H](NC(=O)CCC(F)(F)F)C(=O)N1C[C@H](OC(=O)N3Cc4cccc(F)c4C3)CC1C(=O)N2 (some centres unmarked) ?
< 1000 nM

I am curious: what IC50 value has been reported for CC(C)(C)OC(=O)N[C@H]1CCCCC/C=C\[C@@H]2C[C@@]2(C(=O)NC#N)NC(=O)C2C[C@@H](OC(=O)N3Cc4cccc(Cl)c4C3)CN2C1=O (some centres unmarked) ?
< 100 nM

I am curious: what IC50 value has been reported for `C[C@H](NC(=O)[C@@]12C[C@H]1/C=C\CCCCC[C@H](NC(=O)OC(C)(C)C)C(=O)N1C[C@H](OC(=O)N3Cc4cccc(F)c4C3)C[C@H]1C(=O)N2)c1ccc(F)cn1` ?
< 1000 nM

I am curious: what IC50 value has been reported for `CC(C)(C)OC(=O)N[C@H]1CCCCC/C=C\[C@@H]2C[C@@]2(C(=O)NS(=O)(=O)Nc2ccncc2)NC(=O)[C@@H]2CCCN2C1=O` ?
> 10000 nM
